Test system: HCT-15 colon
Test: NCI tumour cell line growth inhibition, 48 h
parameter: GI50

Req: Name the recorded GI50 of the item `Nc1c(C(=O)Nc2ccccc2Cl)sc2nc3c(cc12)C(=O)CCC3` in your answer.
Resp: 0.626 µM

Req: Name the recorded GI50 of the item COc1cc(/C=C/C(=O)C(C(=O)/C=C/c2ccc(OC(=O)CCNC34CC5CC(CC(C5)C3)C4)c(OC)c2)C(=O)CCNC23CC4CC(CC(C4)C2)C3)ccc1OC(=O)CCNC12CC3CC(CC(C3)C1)C2 (centres undefined) in your answer.
Resp: 3.21 µM

Req: Name the recorded GI50 of the item `COc1cc2c3c(n(CCCN(C)CCO)c(=O)c2cc1OC)-c1cc2c(cc1C3=O)OCO2` in your answer.
Resp: 6.79 µM

Req: Name the recorded GI50 of the item `O=C(Nc1ccc(Cl)cc1)Nc1nccs1` in your answer.
Resp: 0.46 µM

* * *

Tested on: SW-620 colon
Test: NCI tumour cell line growth inhibition, 48 h
Give TGI for every item shown.
Just the number please, in µM, no unit attached.

Req: Name the recorded TGI of the item CCCCC1Cc2cc(O)ccc2-c2nc3cc(O)ccc3n21 (centres undefined) (tested in a mixture with another compound) in your answer.
Resp: 39.5

Req: Name the recorded TGI of the item `NCCCOc1cc(Cl)ccc1NC(=O)c1cc2ccccc2cc1OCCCN` in your answer.
Resp: 3.06

Req: Name the recorded TGI of the item CNC(C)[C@H]1CCC2C3CC=C4C(=O)[C@@H](NC(=O)C=C(C)C)CC[C@]4(C)C3CC[C@@]21C (some centres undefined) in your answer.
Resp: 4.03

Req: Name the recorded TGI of the item Cc1ccnc2c1C(=O)C1=C(OC(C)(C)CC1O)C2=O (centres undefined) in your answer.
Resp: 10.4

Req: Name the recorded TGI of the item CCCCC1C=Cn2c(=O)oc3c(OC(C)C)c(C)c(O)c1c32 (centres undefined) in your answer.
Resp: 11.9

Req: Name the recorded TGI of the item COc1cc(/C=C2\CCC/C(=C\c3ccc(OCC4CO4)c(OC)c3)C2=O)ccc1OCC1CO1 (centres undefined) in your answer.
Resp: 5.09

Req: Name the recorded TGI of the item `CCOC(=O)c1sc(NC(=O)COc2cccc(/C=C3\CCc4cc(OC)ccc4C3=O)c2)nc1C` in your answer.
Resp: 13.3

Req: Name the recorded TGI of the item `CN(C)CCNc1nc2ccccc2c2c(=O)c3cc(F)ccc3sc12` in your answer.
Resp: 3.23

Req: Name the recorded TGI of the item `NC(N)=N/N=C(\N=Nc1ccccc1)c1ccc(Cl)cc1` in your answer.
Resp: 3.54

* * *

Test system: 786-0 renal
Test: NCI tumour cell line growth inhibition, 48 h
Give TGI for every item shown.

Req: Name the recorded TGI of the item `O=C(Nc1ccc(Cl)cc1)Nc1nccs1` in your answer.
Resp: > 100 µM

Req: Name the recorded TGI of the item `Cn1cc(-c2csc(-c3cn(C)c4ccc(F)cc34)n2)c2cnccc21` in your answer.
Resp: 2.96 µM

Req: Name the recorded TGI of the item Cc1ccnc2c1C(=O)C1=C(OC(C)(C)CC1O)C2=O (stereo unspecified) in your answer.
Resp: 16.4 µM

Req: Name the recorded TGI of the item CNC(C)[C@H]1CCC2C3CC=C4C(=O)[C@@H](NC(=O)C=C(C)C)CC[C@]4(C)C3CC[C@@]21C (stereo partly specified) in your answer.
Resp: 3.16 µM

Req: Name the recorded TGI of the item `NC1(CCNC(=O)c2ccccc2)CCN(C(=O)c2ccccc2)CC1` in your answer.
Resp: > 100 µM

Req: Name the recorded TGI of the item `c1ccc2c(c1)OCCOCCOc1ccccc1OCCO2` in your answer.
Resp: > 100 µM

Req: Name the recorded TGI of the item `CCCC(=O)[O-].CCCC(=O)[O-].NCCN.NCCN.[Co+3].[O-][Cl+3]([O-])([O-])[O-]` in your answer.
Resp: > 100 µM

Req: Name the recorded TGI of the item `COc1ccc(-c2noc(N)c2-c2cc(OC)c3c(c2)OCO3)cc1` in your answer.
Resp: > 100 µM

Req: Name the recorded TGI of the item `COc1cc(-c2nnc3n2NC=C(C(=O)O)S3)cc(OC)c1OC` in your answer.
Resp: > 76.3 µM

Req: Name the recorded TGI of the item `CC(=O)Nc1c(C(=N)C#N)ncn1CCO` in your answer.
Resp: > 100 µM

Req: Name the recorded TGI of the item `CCCn1cnc2c(SCc3ccc(Cl)cc3)nc(N)nc21` in your answer.
Resp: > 100 µM
